- Read-out: TIMP metallopeptidase inhibitor 2 (TIMP2), TIMP2 (gene 7077)
- testDetails: BSK_KF3CT_TIMP2: BioMAP Diversity Plus: KF3CT Assay for TIMP metallopeptidase inhibitor 2 (TIMP2) Biomarker Activity (AID 2283071)
- conditionContext: primary human keratinocytes with fibroblasts; actives raise or lower the signal
Activity calls are given as the source filed them. Rule for the calls: active = hit-call score of the fitted dose curve at least 0.9, where 1 is the maximum; inactive = score below 0.9.
Thanks in advance; please answer with one of these: active, inactive

> print(dat)
                 compound  labelvalue
1  O=c1c2ccccc2oc2ccccc12    inactive

Record request — test call for CCO[Si](CCCN=C=O)(OCC)OCC
inactive

Record request — test call for O=C(Cl)c1cc(C(=O)Cl)cc(C(=O)Cl)c1
active

Record request — test call for c1ccc2c(c1)ccc1ncccc12
inactive

Record request — test call for C#CC1(O)CC[C@H]2[C@@H]3CCC4=CCCC[C@@H]4[C@H]3CC[C@@]21C (stereo partly drawn)
active

Record request — test call for CCCCNc1ccc(NCCCC)c2c1C(=O)c1ccccc1C2=O
inactive

Record request — test call for C=CC(=O)OCC(Br)CBr (stereo not drawn)
active

Record request — test call for O=C(Nc1ccccc1SSc1ccccc1NC(=O)c1ccccc1)c1ccccc1
inactive

Record request — test call for CCCCC(CC)COCC1CO1 (stereo not drawn)
inactive

Record request — test call for CCCCCCCCc1ccc(Nc2ccc(CCCCCCCC)cc2)cc1
inactive

Record request — test call for CCCCCCCCCCCCCCCC[N+](C)(C)CC
active

Record request — test call for CCOc1nc(F)cc2nc(S(=O)(=O)Nc3c(Cl)cccc3C(=O)OC)nn12
inactive

Record request — test call for C=CC=CC=CCCCCC
inactive

Record request — test call for S=C(NC1CCCCC1)NC1CCCCC1
inactive

Record request — test call for O=C(c1ccc(O)cc1)c1ccc(O)cc1O
inactive

Record request — test call for O=C1CCCN1CCO
inactive

Record request — test call for CCCCC/C=C\C/C=C\CCCCCCCC(=O)OC
active

* * *

- testDetails: ATG_Oct_MLP_CIS: Attagene CIS-FACTORIAL HepG2 Assay for human Octamer-Binding Transcription Factor (Oct) (AID 2282993)
- conditionContext: HepG2 Attagene cis-factorial Oct reporter, mRNA; actives raise or lower the signal
Activity calls are given as the source filed them. The calls were made as follows: active = hit-call score of the fitted dose curve at least 0.9, where 1 is the maximum; inactive = score below 0.9.
Thanks in advance; please answer with one of these: active, inactive

> print(dat)
             compound  labelvalue
1  COc1ccc2nc(N)sc2c1    inactive

Record request — test call for CCCCCCOc1cc(C)c(O)c(C)c1C
inactive

Record request — test call for O=C1CCCC1
inactive

Record request — test call for NC(=O)C1CO1 (configuration not stated)
inactive

Record request — test call for CCOC(=O)NNc1nncc2ccccc12
inactive

* * *

- system: Nuclear receptor subfamily 1 group I member 2 (Homo sapiens) (UniProt O75469)
- Sequence (O75469 whole entry, looked up): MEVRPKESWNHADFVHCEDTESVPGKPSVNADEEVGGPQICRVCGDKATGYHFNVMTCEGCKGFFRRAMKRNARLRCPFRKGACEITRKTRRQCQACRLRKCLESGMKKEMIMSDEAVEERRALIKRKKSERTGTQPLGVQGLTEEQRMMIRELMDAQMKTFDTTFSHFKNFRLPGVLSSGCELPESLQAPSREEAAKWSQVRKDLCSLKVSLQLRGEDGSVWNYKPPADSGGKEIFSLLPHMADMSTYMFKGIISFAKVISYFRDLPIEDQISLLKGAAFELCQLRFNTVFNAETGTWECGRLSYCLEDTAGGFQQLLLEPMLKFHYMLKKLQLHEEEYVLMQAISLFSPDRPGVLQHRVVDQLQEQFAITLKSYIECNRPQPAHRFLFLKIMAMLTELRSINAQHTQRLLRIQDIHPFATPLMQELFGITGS
- testDetails: ATG_PXR_TRANS: Attagene TRANS-FACTORIAL HepG2 Assay for human Pregnane X Receptor (PXR) (AID 2283008)
Results filed as inconclusive are left out. Active and inactive are the calls of the source. How the source made its calls: active means hit-call score of the fitted dose curve at least 0.9, where 1 is the maximum; inconclusive means response in the unintended direction; inactive means score below 0.9.
Thanks in advance; please answer with one of these: TRUE = active, FALSE = inactive

> print(dat)
                            molecule  labelvalue
1  O=C(O)C(c1ccc(Cl)cc1)c1ccc(Cl)cc1       FALSE

API: the following record is the query input.
Record request — test call for NCCCN1CCN(CCCN)CC1
FALSE

* * *

- testDetails: ATG_M_06_CIS: Attagene CIS-FACTORIAL HepG2 Assay for M06 Transcription Factor (Internal Marker) (AID 2282950)
- conditionContext: HepG2 Attagene CIS-FACTORIAL M06 internal marker reporter; actives raise or lower the signal
Activity calls are given as the source filed them. Rule for the calls: active = hit-call score of the fitted dose curve at least 0.9, where 1 is the maximum; inactive = score below 0.9.
propertyLabel: outcome

Look over these answered cases.
> print(dat)
                                   compound  propertylabel    result
1               Oc1ccc(Cl)cc1Cc1cc(Cl)ccc1O        outcome  inactive
2                        COC(=O)/C=C\C(=O)O        outcome  inactive
3                   Cc1ccc(OC(=O)CC(C)C)cc1        outcome  inactive
4                                c1c[nH]cn1        outcome  inactive
5  O=C1OC(=O)c2cc(Oc3ccc4c(c3)C(=O)OC4=O)ccc21        outcome  inactive

I need outcome for every entry listed below, if you could help.
1. O=S(=O)(O)CC(O)CCl (stereo not given)
2. O=C(O)c1cc(Cl)cc([N+](=O)[O-])c1Cl
3. COc1cc(C)ccc1C(C)C
4. O=C1CCC(=O)N1Cl
5. COc1cc(NC(=O)CC(C)=O)c(OC)cc1Cl
6. C1=CCCC1

inactive
inactive
inactive
inactive
inactive
inactive

I need outcome for every entry listed below, if you could help.
1. O=C(Oc1ccccc1)c1ccc2ccccc2c1O
2. O=C(OCC1CCC2OC2C1)C1CCC2OC2C1 (stereo not given)
3. O=C1CCCN1CCO
4. O=CN1CCCCC1

1. inactive
2. inactive
3. inactive
4. inactive

* * *

- system: human Vitamin D Receptor (VDR), VDR (gene 7421) (UniProt P11473)
- Sequence (P11473 whole entry, looked up): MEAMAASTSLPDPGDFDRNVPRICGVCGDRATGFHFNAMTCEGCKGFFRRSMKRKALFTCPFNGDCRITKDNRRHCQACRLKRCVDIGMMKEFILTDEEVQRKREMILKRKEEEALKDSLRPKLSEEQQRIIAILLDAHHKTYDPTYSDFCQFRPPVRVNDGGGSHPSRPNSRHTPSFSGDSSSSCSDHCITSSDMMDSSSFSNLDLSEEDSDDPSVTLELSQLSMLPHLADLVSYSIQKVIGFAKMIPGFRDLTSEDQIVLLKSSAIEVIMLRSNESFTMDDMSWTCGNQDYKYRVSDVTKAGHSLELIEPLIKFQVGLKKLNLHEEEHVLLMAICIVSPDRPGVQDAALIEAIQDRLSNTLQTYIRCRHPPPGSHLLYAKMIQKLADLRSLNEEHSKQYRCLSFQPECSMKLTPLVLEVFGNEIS
- testDetails: ATG_VDR_TRANS: Attagene TRANS-FACTORIAL HepG2 Assay for human Vitamin D Receptor (VDR) (AID 2283022)
Inconclusive results are not listed. Activity calls are given as the source filed them. Rule for the calls: active = hit-call score of the fitted dose curve at least 0.9, where 1 is the maximum; inconclusive = response in the unintended direction; inactive = score below 0.9.
propertyLabel: outcome

> print(dat)
                                   compound                                    system    result
1  c1cc(N(CC2CO2)CC2CO2)ccc1OCC1CO1 (configuration not stated)  human Vitamin D Receptor (VDR), VDR (gene 7421) (UniProt P11473)  inactive
2                               OCCc1ccncc1  human Vitamin D Receptor (VDR), VDR (gene 7421) (UniProt P11473)  inactive
3  CCCCC(CC)COC(=O)c1ccccc1 (configuration not stated)  human Vitamin D Receptor (VDR), VDR (gene 7421) (UniProt P11473)  inactive
4                                    CC=CCO  human Vitamin D Receptor (VDR), VDR (gene 7421) (UniProt P11473)  inactive
5                O=C(O)c1cc2ccccc2nc1C(=O)O  human Vitamin D Receptor (VDR), VDR (gene 7421) (UniProt P11473)  inactive
6  O=S(=O)(O)c1ccccc1C=Cc1ccc(-c2ccc(C=Cc3ccccc3S(=O)(=O)O)cc2)cc1  human Vitamin D Receptor (VDR), VDR (gene 7421) (UniProt P11473)  inactive

We now examine a further compound.
outcome measured on C=C(C)C(=O)OCCOc1ccccc1 = inactive

* * *

- system: Retinoic acid receptor alpha (Homo sapiens)
- testDetails: ATG_DR5_RAR_CIS: Attagene CIS-FACTORIAL HepG2 Assay for human Retinoic Acid Receptor Alpha (RARE), DR5 submotif (AID 2282934)
- conditionContext: HepG2 Attagene cis-factorial RARE DR5 reporter, mRNA; actives raise or lower the signal
Calls of active or inactive are those of the source. How the source made its calls: active means hit-call score of the fitted dose curve at least 0.9, where 1 is the maximum; inactive means score below 0.9.
Thanks in advance; please answer with one of these: active, inactive

# example entries with known answers
> print(dat)
                                    compound  labelvalue
 1               CCCCCCCCCCCCCCCC[n+]1ccccc1      active
 2                         CCOC(=O)[C@H](C)O    inactive
 3  CC(=O)OCC(C)OC(C)=O (stereo unspecified)    inactive
 4          NC(=O)C1CO1 (stereo unspecified)    inactive
 5                       Cc1ccc(C(C)(C)C)cc1    inactive
 6              O=C(c1ccccc1)c1ccc(O)c(O)c1O    inactive
 7                    ON(Cc1ccccc1)Cc1ccccc1    inactive
 8                            C1=Cc2ccccc2C1    inactive
 9                                  C=COCCCC    inactive
10                      C1CN(SSN2CCOCC2)CCO1    inactive

Record request — test call for COC(=O)/C=C/C(C)=C\C=C\C(C)=C\C=C\C=C(C)\C=C\C=C(C)\C=C\C(=O)O
inactive

Record request — test call for Nc1ccc2cc3ccccc3cc2c1
inactive

* * *

- system: Estrogen receptor beta (Homo sapiens)
- testDetails: OT_ER_ERbERb_0480: Odyssey Thera (OT) 8-hour HEK293T Protein-Complementation Assay for Estrogen Receptor-beta/-beta Homodimer (AID 2283357);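 note: active means signal gain over DMSO baseline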
Inconclusive results are not listed. Calls of active or inactive are those of the source. How the source made its calls: active means hit-call score of the fitted dose curve at least 0.9, where 1 is the maximum; inconclusive means response in the unintended direction; inactive means score below 0.9.
Thanks in advance; please answer with one of these: active, inactive

> print(dat)
                                   compound  labelvalue
1                           NC(=O)c1ccccc1O    inactive
2     CC(C)(C)c1ccc(-c2ccc(C(C)(C)C)cc2)cc1    inactive
3  O=S(=O)(O)c1ccccc1C=Cc1ccc(-c2ccc(C=Cc3ccccc3S(=O)(=O)O)cc2)cc1      active

Record request — test call for CCCCC/C=C\C/C=C\CCCCCCCC(=O)OC
inactive

Record request — test call for CC(C)(C)c1ccc(N)cc1
inactive

Record request — test call for CCOC(=O)Cc1cccc2ccccc12
inactive

Record request — test call for O=C1C(N(CO)C(=O)NCO)N(CO)C(=O)N1CO (centres undefined)
inactive

Record request — test call for CC1=NN(c2cc(S(=O)(=O)O)ccc2Cl)C(=O)C1N=Nc1ccccc1 (centres undefined)
inactive

Record request — test call for CN(C)c1ccc(C(=N)c2ccc(N(C)C)cc2)cc1
inactive

Record request — test call for CC=C1CC2C=CC1C2 (centres undefined)
inactive

Record request — test call for CC(C)c1ccc2cc(C(C)C)ccc2c1
inactive

Record request — test call for CCOC(=O)CC
inactive

Record request — test call for CC1=CC[C@H]2C[C@@H]1C2(C)C
inactive

Record request — test call for Cc1ccc(C(C)c2ccc(C)c(C)c2)cc1C
active

Record request — test call for C=CC(=O)NC(C)(C)CS(=O)(=O)O
inactive

Record request — test call for CCO[Si](C)(OCC)OCC
inactive
